assay: Inhibition of ERK phosphorylation in human MDA-MB-231 cells after 1 hr; type: cell-based
pIC50: −log10 of the molar value.
MEASURED_QUANTITY: pIC50

1 = Cc1ccc2[nH]c3c(c2c1)CCC(NC1CCC(C)C1)C3 (configuration not stated)
2 = c1ccc2c3c([nH]c2c1)C(NC1CCCC1)CCC3 (configuration not stated)
Request: Hi, I'm comparing two records. Which one has the lower pIC50, 1 or 2 ? Please respond with the label that marks your chosen entry.
Result: 2
(2: 4.52, 1: 5.26)

Origin of values: ChEMBL document CHEMBL4033649
